Measured molar heat capacity at constant pressure by item
assay: molar heat capacity at constant pressure; settings: 313.15 K; 101.33 kPa; Liquid; Large sample (1 g) DSC
± gives the expanded uncertainty stated by the source.

Consider the worked cases shown below.
Notebook: CCCCCCCCCCCBr [1-bromoundecane] , molar heat capacity at constant pressure read as 380.7 ± 16 J/K/mol

Notebook: CCCCCCCCCBr [1-bromononane] , molar heat capacity at constant pressure read as 315.1 ± 13 J/K/mol

Notebook: CCCCCCCCCCBr [1-bromodecane] , molar heat capacity at constant pressure read as 341.85 ± 15 J/K/mol

Notebook: CCCCCCCCCCCCBr [1-bromododecane] , molar heat capacity at constant pressure read as 408.56 ± 17 J/K/mol

Notebook: CCCCCCBr [1-bromohexane] , molar heat capacity at constant pressure read as 224.51 ± 9.5 J/K/mol

New cases:
Notebook: CCCCCCCBr [1-bromoheptane] , molar heat capacity at constant pressure read as 254.91 ± 11 J/K/mol

Notebook: CCCCCCCCCCCCCCBr [1-tetradecyl bromide] , molar heat capacity at constant pressure read as 460.54 ± 20 J/K/mol

Notebook: CCCCCCCCBr [1-bromooctane] , molar heat capacity at constant pressure read as 279.8 ± 12 J/K/mol

* * *

assay: molar heat capacity at constant pressure; settings: 358.15 K; 101.33 kPa; Liquid; Large sample (1 g) DSC
Measured attribute: molar heat capacity at constant pressure (J/K/mol)
Please state the figure in J/K/mol; there is no need to write the unit.

Consider the worked cases shown below.
Notebook: `CCCCCCCCCCCBr` , molar heat capacity at constant pressure read as 403.12

Notebook: `CCCCCCCBr` , molar heat capacity at constant pressure read as 271.46

Notebook: `CCCCCCCCBr` , molar heat capacity at constant pressure read as 302.78

Notebook: `CCCCCCCCCCBr` , molar heat capacity at constant pressure read as 364.32

Notebook: `CCCCCCBr` , molar heat capacity at constant pressure read as 239.11

New cases:
Notebook: CCCCCCCCCCCCCCBr [1-tetradecyl bromide] , molar heat capacity at constant pressure read as 489.71

Notebook: `CCCCCCCCCBr` , molar heat capacity at constant pressure read as 335.46

Notebook: `CCCCCCCCCCCCBr` , molar heat capacity at constant pressure read as 436.35

* * *

Measured molar heat capacity at constant pressure by item
test: molar heat capacity at constant pressure; details: 388.15 K; 101.33 kPa; Liquid; Large sample (1 g) DSC
Please state the figure in J/K/mol; there is no need to write the unit.

Consider the worked cases shown below.
Notebook: CCCCCCCCBr [1-bromooctane] , molar heat capacity at constant pressure read as 318.1

Notebook: CCCCCCCCCCCCCCBr [1-tetradecyl bromide] , molar heat capacity at constant pressure read as 509.15

Notebook: CCCCCCCCCCCCBr [1-bromododecane] , molar heat capacity at constant pressure read as 454.9

New cases:
Notebook: CCCCCCBr [1-bromohexane] , molar heat capacity at constant pressure read as 248.83

Notebook: CCCCCCCCCCCBr [1-bromoundecane] , molar heat capacity at constant pressure read as 418.08

Notebook: CCCCCCCCCCBr [1-bromodecane] , molar heat capacity at constant pressure read as 379.3

Notebook: CCCCCCCBr [1-bromoheptane] , molar heat capacity at constant pressure read as 282.47

Notebook: CCCCCCCCCBr [1-bromononane] , molar heat capacity at constant pressure read as 349.03

* * *

assay: molar heat capacity at constant pressure; conditions: 353.15 K; 101.33 kPa; Liquid; Large sample (1 g) DSC
Measured attribute: molar heat capacity at constant pressure (J/K/mol)
Please state the figure in J/K/mol; there is no need to write the unit.

Consider the worked cases shown below.
Notebook: `CCCCCCCCCCBr` , molar heat capacity at constant pressure read as 361.82

Notebook: `CCCCCCCBr` , molar heat capacity at constant pressure read as 269.61

Switching to the query record.
Notebook: `CCCCCCCCCBr` , molar heat capacity at constant pressure read as 333.2

* * *

test: molar heat capacity at constant pressure; conditions: 303.15 K; 101.33 kPa; Liquid; Large sample (1 g) DSC
Measured attribute: molar heat capacity at constant pressure (J/K/mol)
Please state the figure in J/K/mol; there is no need to write the unit.

Consider the worked cases shown below.
Notebook: `CCCCCCCCCCCBr` , molar heat capacity at constant pressure read as 375.72

Notebook: CCCCCCCCCCCCCCBr [1-tetradecyl bromide] , molar heat capacity at constant pressure read as 454.08

Notebook: `CCCCCCCBr` , molar heat capacity at constant pressure read as 251.24

Notebook: `CCCCCCBr` , molar heat capacity at constant pressure read as 221.28

Notebook: `CCCCCCCCBr` , molar heat capacity at constant pressure read as 274.7

New cases:
Notebook: `CCCCCCCCCCCCBr` , molar heat capacity at constant pressure read as 402.38

Notebook: `CCCCCCCCCBr` , molar heat capacity at constant pressure read as 310.56

Notebook: `CCCCCCCCCCBr` , molar heat capacity at constant pressure read as 336.85

* * *

Measured molar heat capacity at constant pressure by item
experiment: molar heat capacity at constant pressure; settings: 368.15 K; 101.33 kPa; Liquid; Large sample (1 g) DSC
Please state the figure in J/K/mol; there is no need to write the unit.

Consider the worked cases shown below.
Notebook: `CCCCCCCCCCCCBr` , molar heat capacity at constant pressure read as 442.53

Notebook: `CCCCCCCCCCBr` , molar heat capacity at constant pressure read as 369.32

Notebook: `CCCCCCCCBr` , molar heat capacity at constant pressure read as 307.88

Notebook: `CCCCCCCBr` , molar heat capacity at constant pressure read as 275.13

New cases:
Notebook: `CCCCCCCCCBr` , molar heat capacity at constant pressure read as 339.98

* * *

assay: molar heat capacity at constant pressure; details: 333.15 K; 101.33 kPa; Liquid; Large sample (1 g) DSC
± gives the expanded uncertainty stated by the source.
Measured attribute: molar heat capacity at constant pressure

Consider the worked cases shown below.
Notebook: `CCCCCCCCCBr` , molar heat capacity at constant pressure read as 324.15 ± 14 J/K/mol

Notebook: `CCCCCCCCBr` , molar heat capacity at constant pressure read as 290.02 ± 12 J/K/mol

Switching to the query record.
Notebook: CCCCCCCCCCCCCCBr [1-tetradecyl bromide] , molar heat capacity at constant pressure read as 473.52 ± 20 J/K/mol

* * *

experiment: molar heat capacity at constant pressure; settings: 308.15 K; 101.33 kPa; Liquid; Large sample (1 g) DSC
Numbers after ± are expanded uncertainties.
Measured molar heat capacity at constant pressure by item
Answer with the number, then the unit.

Consider the worked cases shown below.
Notebook: `CCCCCCCCCCCBr` , molar heat capacity at constant pressure read as 378.21 ± 16 J/K/mol

Notebook: `CCCCCCBr` , molar heat capacity at constant pressure read as 222.9 ± 9.5 J/K/mol

Notebook: `CCCCCCCCCCBr` , molar heat capacity at constant pressure read as 339.35 ± 14 J/K/mol

Notebook: `CCCCCCCCCBr` , molar heat capacity at constant pressure read as 312.82 ± 13 J/K/mol

New cases:
Notebook: `CCCCCCCCCCCCBr` , molar heat capacity at constant pressure read as 405.47 ± 17 J/K/mol

Notebook: `CCCCCCCCBr` , molar heat capacity at constant pressure read as 277.25 ± 12 J/K/mol

Notebook: `CCCCCCCBr` , molar heat capacity at constant pressure read as 253.07 ± 11 J/K/mol

Notebook: CCCCCCCCCCCCCCBr [1-tetradecyl bromide] , molar heat capacity at constant pressure read as 457.3 ± 19 J/K/mol

* * *

Measured molar heat capacity at constant pressure by item
test: molar heat capacity at constant pressure; details: 383.15 K; 101.33 kPa; Liquid; Large sample (1 g) DSC
Please state the figure in J/K/mol; there is no need to write the unit.

Notebook: CCCCCCCCBr [1-bromooctane] , molar heat capacity at constant pressure read as 315.55

Notebook: CCCCCCCCCCCCBr [1-bromododecane] , molar heat capacity at constant pressure read as 451.81

Notebook: CCCCCCCBr [1-bromoheptane] , molar heat capacity at constant pressure read as 280.65

Notebook: CCCCCCCCCBr [1-bromononane] , molar heat capacity at constant pressure read as 346.77

Notebook: CCCCCCCCCCCBr [1-bromoundecane] , molar heat capacity at constant pressure read as 415.58

New cases:
Notebook: CCCCCCCCCCBr [1-bromodecane] , molar heat capacity at constant pressure read as 376.8

Notebook: CCCCCCBr [1-bromohexane] , molar heat capacity at constant pressure read as 247.21

Notebook: CCCCCCCCCCCCCCBr [1-tetradecyl bromide] , molar heat capacity at constant pressure read as 505.9

* * *

Measured molar heat capacity at constant pressure by item
test: molar heat capacity at constant pressure; settings: 378.15 K; 101.33 kPa; Liquid; Large sample (1 g) DSC
Numbers after ± are expanded uncertainties.
Answer with the number, then the unit.

Notebook: `CCCCCCCBr` , molar heat capacity at constant pressure read as 278.8 ± 12 J/K/mol

Notebook: `CCCCCCCCCBr` , molar heat capacity at constant pressure read as 344.51 ± 15 J/K/mol

Notebook: CCCCCCCCCCCCCCBr [1-tetradecyl bromide] , molar heat capacity at constant pressure read as 502.66 ± 21 J/K/mol

Notebook: `CCCCCCCCBr` , molar heat capacity at constant pressure read as 313 ± 13 J/K/mol

Notebook: `CCCCCCCCCCCBr` , molar heat capacity at constant pressure read as 413.09 ± 18 J/K/mol

Notebook: `CCCCCCBr` , molar heat capacity at constant pressure read as 245.59 ± 10 J/K/mol

Notebook: `CCCCCCCCCCCCBr` , molar heat capacity at constant pressure read as 448.72 ± 19 J/K/mol

Notebook: `CCCCCCCCCCBr` , molar heat capacity at constant pressure read as 374.3 ± 16 J/K/mol
